# assay_text: qHTS Assay for NPC1 Promoter Activators: Initial hit validation from the primary screen
# assay_setup: Huh7 NPC1 promoter-luciferase reporter, luminescence, 24 h; series mostly up to 46.1 µM
Results filed as inconclusive are left out. Calls of active or inactive are those of the source. The call rests on the fitted dose curve; in most records, active means well fitted activation curve with a large enough effect; inconclusive means small, poorly fitted or top-dose-only effect; inactive means flat fitted curve, though single readings scatter.
In this exercise, the only acceptable responses are active, inactive

Field: example entries. Status: answers known.
[[record]]
sample_smiles = "Cc1ccc(C#N)c(SCC(=O)Nc2nccs2)n1"
class = "active"

[[record]]
sample_smiles = "Cc1ccc(CNC(=O)Nc2ccc(C)cc2)cc1"
class = "active"

[[record]]
sample_smiles = "CC(=O)Nc1ccc(NC(=O)COc2ncnc3ccccc23)cc1"
class = "inactive"

[[record]]
sample_smiles = "Cc1ccc(S(=O)(=O)N2CCN(c3cnn(C)c(=O)c3Cl)CC2)cc1"
class = "inactive"


What outcome does the record of this test show for `O=C(CSc1nnc(Cc2cc(=O)[nH]c(=O)[nH]2)n1-c1ccc(Cl)cc1)NC1CCCC1` ? inactive

For `O=C(COC(=O)c1ccc(-c2nnc(-c3ccccc3)o2)cc1)c1ccccc1` , which call appears in the assay record? active
